Measured values drawn from ChEMBL document CHEMBL5058577 for this set.

So I've got a bunch of molecules here, and I need their Population Hoechst High Intensity Objects (%) values.
Tested on: Fibroblast
Experiment: Multiplex assay against human fibroblast
Assay type: toxicity, cell-based
Conditions: 48 h, 1 µM, compound concentration 1 uM, replicate 2
# output: bare number, implied unit %

[Q] Notebook: pull reported Population Hoechst High Intensity Objects (%) for Fibroblast, entry `CN1CCN(c2nc3cc(C(F)(F)F)ccc3n3cccc23)CC1.O=C(O)/C=C\C(=O)O.O=C(O)/C=C\C(=O)O`
[A] 3

[Q] How about Cc1ccc(C(C)(O)c2nc3ccccc3s2)c(C)c1 (stereo not given) ?
[A] 3

[Q] How about CSc1ccccc1N1CCN(CCCCCC(=O)NC2CCCc3ccccc32)CC1.Cl (stereo not given) ?
[A] 1

[Q] How about `COc1c(C)cc(NC(=O)c2nn(Cc3ccc(F)cc3)c3c2CN(C(=O)c2ccc[nH]2)C[C@]3(C)C(N)=O)cc1C` ?
[A] 5

[Q] How about `CCOc1c2c(c(OCC)c3ncccc13)CN(c1ccc(CS(=O)(=O)NC(=O)Cc3ccccc3OC)cc1C)C2=O` ?
[A] 5

----------
System: Fibroblast
Test: Multiplex assay against human fibroblast
Format: toxicity, cell-based
Conditions: 24 h, 10 µM, compound concentration 10 uM, replicate 1
metricName: Population Hoechst High Intensity Objects (%)
# output: bare number, implied unit %

[Q] May I ask what Population Hoechst High Intensity Objects (%) has been recorded for COc1cc(NC(=O)CCN2CCC(OC(=O)Nc3ccccc3-c3ccccc3)CC2)c(Cl)cc1CNC[C@H](O)c1ccc(O)c2[nH]c(=O)ccc12 [BATEFENTEROL] ?
[A] 0

[Q] How about `O=C(NCCO)c1cccc(-c2cc(Nc3ccc(OC(F)(F)F)cc3)ncn2)c1` ?
[A] 11

[Q] How about O=C(O)c1cc2ccccc2c(Cc2c(O)c(C(=O)O)cc3ccccc23)c1O [PAMOIC ACID] ?
[A] 2

[Q] How about CSc1ccccc1N1CCN(CCCCCC(=O)NC2CCCc3ccccc32)CC1.Cl (centres undefined) ?
[A] 7

[Q] How about N[C@@]1(C(=O)O)CO[C@H]2[C@H](C(=O)O)[C@H]21 [LY-379268] ?
[A] 5

[Q] How about `CN(C)c1ccnc2sc3c(=O)n(N4CCCCCC4)cnc3c12` ?
[A] 5

[Q] How about COc1ccc2c(c1)C(C(=O)N(Cc1ccc(N(C)C)cc1)c1ccc(C(C)C)cc1)CCC2.Cl (centres undefined) ?
[A] 3

[Q] How about `Oc1c(CN2CCN(c3ccccn3)CC2)cc(Cl)c2cccnc12` ?
[A] 0

[Q] How about C[C@H](NC(=O)c1c(C(F)F)nn(C)c1Oc1cccc(C(F)(F)F)c1)c1ccc(C(=O)O)cc1 [PALUPIPRANT] ?
[A] 5

[Q] How about Cc1ccc(/C(=C\CN2CCCC2)c2ccccn2)cc1 [TRIPROLIDINE] ?
[A] 4

[Q] How about CNC[C@H](O)c1ccc(O)c(O)c1 [EPINEPHRINE] ?
[A] 3

[Q] How about `CCCn1c(=O)c2[nH]c(C3CCCC3)nc2n(CCC)c1=O` ?
[A] 3

[Q] How about `O=C1COc2nccc(-c3ccccc3F)c2CN1Cc1cc(C(F)(F)F)cc(C(F)(F)F)c1` ?
[A] 3

[Q] How about `COc1c(C)cc(NC(=O)c2nn(Cc3ccc(F)cc3)c3c2CN(C(=O)c2ccc[nH]2)C[C@]3(C)C(N)=O)cc1C` ?
[A] 3

[Q] How about Cc1ccc(F)cc1C(=O)Nc1ccc(C(=O)N2Cc3cccn3Cc3ccccc32)c(Cl)c1 [LIXIVAPTAN] ?
[A] 0

[Q] How about N#Cc1c(N)nc(SCc2csc(-c3ccc(Cl)cc3)n2)c(C#N)c1-c1ccc(OCCO)cc1 [CAPADENOSON] ?
[A] 2

[Q] How about CC1(COc2ccc3c(c2)ncn3-c2ccc3cccc(N4CCC(N)CC4)c3n2)COC1 [CRENOLANIB] ?
[A] 16

[Q] How about CN1CCN2c3ncccc3Cc3ccccc3C2C1 (centres undefined) [MIRTAZAPINE] ?
[A] 4

[Q] How about `Cc1nc2ccc(Oc3ccc(F)cc3)cc2c(=O)n1C[C@H]1CCCN(C(C)C)C1.Cl` ?
[A] 3

----------
Test system: Fibroblast
Test: Multiplex assay against human fibroblast
Format: toxicity, cell-based
Conditions: 12 h, 1 µM, compound concentration 1 uM, replicate 1
So I've got a bunch of compounds here, and I need their Population Healthy Nuclei (%) values.
# answer = value followed by unit

[Q] May I ask what Population Healthy Nuclei (%) has been recorded for `c1cc(OCCCN2CCCCC2)ccc1CN1CCCCC1` ?
[A] 64%

[Q] How about `Cc1nc2ccc(Oc3ccc(F)cc3)cc2c(=O)n1C[C@H]1CCCN(C(C)C)C1.Cl` ?
[A] 67%

[Q] How about Cc1ccc(C(C)(O)c2nc3ccccc3s2)c(C)c1 (configuration not stated) ?
[A] 78%

[Q] How about `O=C(NCC(=O)N1CC[C@H](N[C@H]2CC[C@@](O)(c3ccc(-c4ncccn4)cn3)CC2)C1)c1cccc(C(F)(F)F)c1` ?
[A] 63%

[Q] How about `C[C@@H]1C[C@H]2[C@@H]3CCC4=CC(=O)C=C[C@]4(C)[C@@]3(F)[C@@H](O)C[C@]2(C)[C@@]1(O)C(=O)CO` ?
[A] 66%

[Q] How about CNC[C@H](O)c1ccc(O)c(O)c1 [EPINEPHRINE] ?
[A] 66%

[Q] How about Cl.Clc1ccc2nsnc2c1NC1=NCCN1 [TIZANIDINE HYDROCHLORIDE] ?
[A] 72%

[Q] How about `CN1CCN(c2nc3cc(C(F)(F)F)ccc3n3cccc23)CC1.O=C(O)/C=C\C(=O)O.O=C(O)/C=C\C(=O)O` ?
[A] 71%

[Q] How about `CN(C)CCCc1cc(C(=O)Nc2ccc(-c3ccncc3)cc2)ccc1O.Cl.Cl` ?
[A] 65%

[Q] How about CCCN1CCC[C@@H]2Cc3n[nH]cc3C[C@H]21.Cl [QUINPIROLE HYDROCHLORIDE] ?
[A] 65%

[Q] How about `CSCC[C@H](NC=O)C(=O)N[C@@H](CC(C)C)C(=O)N[C@@H](Cc1ccccc1)C(=O)O` ?
[A] 69%

[Q] How about `COc1c(C)cc(NC(=O)c2nn(Cc3ccc(F)cc3)c3c2CN(C(=O)c2ccc[nH]2)C[C@]3(C)C(N)=O)cc1C` ?
[A] 58%

[Q] How about `N[C@@]1(C(=O)O)CO[C@H]2[C@H](C(=O)O)[C@H]21` ?
[A] 70%

[Q] How about CN1CCN2c3ncccc3Cc3ccccc3C2C1 (configuration not stated) ?
[A] 77%

[Q] How about `CC[C@H]1OC(=O)[C@H](C)[C@@H](O[C@H]2C[C@@](C)(OC)[C@@H](O)[C@H](C)O2)[C@H](C)[C@@H](O[C@@H]2O[C@H](C)C[C@H](N(C)C)[C@H]2O)[C@@]2(C)CC(C)=C(O2)[C@H](C)[C@@H](O)[C@]1(C)O` ?
[A] 72%

[Q] How about `CC(C)(C)c1ccc(S(=O)(=O)Nc2ccc(Cl)cc2C(=O)c2cc[n+]([O-])cc2)cc1` ?
[A] 65%

[Q] How about `CC1(COc2ccc3c(c2)ncn3-c2ccc3cccc(N4CCC(N)CC4)c3n2)COC1` ?
[A] 60%

[Q] How about `CCCC(CCC)C(=O)O` ?
[A] 65%

[Q] How about `Cc1ccc(F)cc1C(=O)Nc1ccc(C(=O)N2Cc3cccn3Cc3ccccc32)c(Cl)c1` ?
[A] 73%

[Q] How about `O=C(O)Cc1ccccc1Nc1c(Cl)cccc1Cl` ?
[A] 67%

[Q] How about `O=C(NCCO)c1cccc(-c2cc(Nc3ccc(OC(F)(F)F)cc3)ncn2)c1` ?
[A] 60%

[Q] How about `N#Cc1c(N)nc(SCc2csc(-c3ccc(Cl)cc3)n2)c(C#N)c1-c1ccc(OCCO)cc1` ?
[A] 80%

----------
So I've got a bunch of molecules here, and I need their Population Normal (%) values.
Tested on: U2OS
Assay: Multiplex assay against U2OS
Assay type: toxicity, cell-based
Conditions: human, 48 h, 1 µM, compound concentration 1 uM, replicate 1
# output: bare number, implied unit %

[Q] May I ask what Population Normal (%) has been recorded for `COc1c(C)cc(NC(=O)c2nn(Cc3ccc(F)cc3)c3c2CN(C(=O)c2ccc[nH]2)C[C@]3(C)C(N)=O)cc1C` ?
[A] 97

[Q] How about O=C(O)c1cc2ccccc2c(Cc2c(O)c(C(=O)O)cc3ccccc23)c1O [PAMOIC ACID] ?
[A] 98

[Q] How about Cc1ccc(F)cc1C(=O)Nc1ccc(C(=O)N2Cc3cccn3Cc3ccccc32)c(Cl)c1 [LIXIVAPTAN] ?
[A] 98

[Q] How about `CCOc1c2c(c(OCC)c3ncccc13)CN(c1ccc(CS(=O)(=O)NC(=O)Cc3ccccc3OC)cc1C)C2=O` ?
[A] 97

[Q] How about Cc1ccc(/C(=C\CN2CCCC2)c2ccccn2)cc1 [TRIPROLIDINE] ?
[A] 97

[Q] How about `Cc1ccc(-c2ccc(F)cc2COc2ccc(CCC(=O)O)cc2)cc1` ?
[A] 97

[Q] How about CCCN1CCC[C@@H]2Cc3n[nH]cc3C[C@H]21.Cl [QUINPIROLE HYDROCHLORIDE] ?
[A] 98

[Q] How about C[C@@H]1C[C@H]2[C@@H]3CCC4=CC(=O)C=C[C@]4(C)[C@@]3(F)[C@@H](O)C[C@]2(C)[C@@]1(O)C(=O)CO [DEXAMETHASONE] ?
[A] 98

[Q] How about CC(=O)NCCc1c(Cc2ccccc2)[nH]c2ccccc12 [LUZINDOLE] ?
[A] 97

[Q] How about `CN1CCN(c2nc3cc(C(F)(F)F)ccc3n3cccc23)CC1.O=C(O)/C=C\C(=O)O.O=C(O)/C=C\C(=O)O` ?
[A] 97

[Q] How about CC(C)(C)c1ccc(S(=O)(=O)Nc2ccc(Cl)cc2C(=O)c2cc[n+]([O-])cc2)cc1 [VERCIRNON] ?
[A] 96

[Q] How about CC1(COc2ccc3c(c2)ncn3-c2ccc3cccc(N4CCC(N)CC4)c3n2)COC1 [CRENOLANIB] ?
[A] 91

[Q] How about Cl.Clc1ccc2nsnc2c1NC1=NCCN1 [TIZANIDINE HYDROCHLORIDE] ?
[A] 98

[Q] How about `Oc1c(CN2CCN(c3ccccn3)CC2)cc(Cl)c2cccnc12` ?
[A] 96

[Q] How about CSc1ccccc1N1CCN(CCCCCC(=O)NC2CCCc3ccccc32)CC1.Cl (centres undefined) ?
[A] 91

[Q] How about `O=C1COc2nccc(-c3ccccc3F)c2CN1Cc1cc(C(F)(F)F)cc(C(F)(F)F)c1` ?
[A] 96

[Q] How about C[C@H](NC(=O)c1c(C(F)F)nn(C)c1Oc1cccc(C(F)(F)F)c1)c1ccc(C(=O)O)cc1 [PALUPIPRANT] ?
[A] 97

[Q] How about O=S(=O)(c1ccccc1)c1cnc2c(N3CCNCC3)cccc2c1 [INTEPIRDINE] ?
[A] 96

[Q] How about `Cc1nc2ccc(Oc3ccc(F)cc3)cc2c(=O)n1C[C@H]1CCCN(C(C)C)C1.Cl` ?
[A] 98

[Q] How about O=C(O)Cc1ccccc1Nc1c(Cl)cccc1Cl [DICLOFENAC] ?
[A] 95

[Q] How about `O=C(NCCO)c1cccc(-c2cc(Nc3ccc(OC(F)(F)F)cc3)ncn2)c1` ?
[A] 97

[Q] How about Cc1ccccc1C(=O)Nc1ccc(C(=O)N2CCCC(N(C)C)c3ccccc32)cc1.Cl (centres undefined) ?
[A] 98

[Q] How about CCCC(CCC)C(=O)O [VALPROIC ACID] ?
[A] 96

[Q] How about `COc1cc(C(=O)N(CCCc2ccccc2)Cc2ccc(CC(=O)O)cc2)cc(OC)c1C` ?
[A] 96

[Q] How about c1cc(OCCCN2CCCCC2)ccc1CN1CCCCC1 [JNJ-5207852] ?
[A] 97

[Q] How about COc1ccc2c(c1)C(C(=O)N(Cc1ccc(N(C)C)cc1)c1ccc(C(C)C)cc1)CCC2.Cl (centres undefined) ?
[A] 97

[Q] How about CCNC1(C(N)=O)CCN(c2ncnc3c2nc(-c2ccccc2Cl)n3-c2ccc(Cl)cc2)CC1 [OTENABANT] ?
[A] 98

[Q] How about COc1cc(NC(=O)CCN2CCC(OC(=O)Nc3ccccc3-c3ccccc3)CC2)c(Cl)cc1CNC[C@H](O)c1ccc(O)c2[nH]c(=O)ccc12 [BATEFENTEROL] ?
[A] 96

[Q] How about `CC[C@H]1OC(=O)[C@H](C)[C@@H](O[C@H]2C[C@@](C)(OC)[C@@H](O)[C@H](C)O2)[C@H](C)[C@@H](O[C@@H]2O[C@H](C)C[C@H](N(C)C)[C@H]2O)[C@@]2(C)CC(C)=C(O2)[C@H](C)[C@@H](O)[C@]1(C)O` ?
[A] 91

[Q] How about CN1CCN2c3ncccc3Cc3ccccc3C2C1 (centres undefined) [MIRTAZAPINE] ?
[A] 97

[Q] How about O=C(NCC(=O)N1CC[C@H](N[C@H]2CC[C@@](O)(c3ccc(-c4ncccn4)cn3)CC2)C1)c1cccc(C(F)(F)F)c1 [PF-4136309] ?
[A] 97

[Q] How about Cc1ccc(C(C)(O)c2nc3ccccc3s2)c(C)c1 (centres undefined) ?
[A] 97

[Q] How about N#Cc1c(N)nc(SCc2csc(-c3ccc(Cl)cc3)n2)c(C#N)c1-c1ccc(OCCO)cc1 [CAPADENOSON] ?
[A] 96

[Q] How about `CCCn1c(=O)c2[nH]c(C3CCCC3)nc2n(CCC)c1=O` ?
[A] 98
